target: Dickkopf-related protein 1 (Homo sapiens); test: DKK1 binders on small-molecule microarrays, primary screen, biochemical, small-molecule microarray, 635 nm fluorescence scan (AID 1106); conditions: DKK1 binding, higher = more signal;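 further: score merges emission near 667 nm with signal to noise over three replicate slides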
Please use YES whenever composite z-score is not below 0.9, and NO whenever it is.

query: Check this molecule for composite z-score at or above 0.9: `COCCOC(=O)N1C(=O)[C@@]2(c3ccccc31)[C@H](c1ccccc1OCCO)N1[C@H](c3ccccc3)[C@H](c3ccccc3)OC(=O)[C@H]1[C@@H]2C(=O)N1CCN(c2ncccn2)CC1`
result: NO

query: Check this molecule for composite z-score at or above 0.9: `O=C(CS)NCCCCCCNC(=O)[C@@H]1C[C@@H]2C(=O)N[C@@H](Cc3ccccc3)C(=O)N2[C@@H]1c1cccc(OCCO)c1`
result: NO

query: Check this molecule for composite z-score at or above 0.9: `C=CCN1C(=O)[C@@]2(CC=C)N=C(c3ccc(OCCCO)cc3)O[C@H]2c2ccccc21`
result: YES

query: Check this molecule for composite z-score at or above 0.9: [N-]=[N+]=Nc1ccccc1[C@H]1OC(c2ccc(OCCCO)cc2)=N[C@@]1(CCS(=O)(=O)c1ccccc1)C(=O)NCC(O)CO (stereo partly specified)
result: NO

query: Check this molecule for composite z-score at or above 0.9: `CC[C@@H]1C=C(C(=O)O)[C@H](c2ccc(Br)cc2)N1S(=O)(=O)c1ccc(C)cc1`
result: NO

query: Check this molecule for composite z-score at or above 0.9: `COCCOC(=O)N1C(=O)[C@@]2(c3cc(C#CCC(C(=O)OC)C(=O)OC)ccc31)[C@H](C(=O)N1CCN(c3ncccn3)CC1)[C@H]1C(=O)O[C@H](c3ccccc3)[C@H](c3ccccc3)N1[C@@H]2c1ccccc1OCCO`
result: YES

----------
molecular target: Dickkopf-related protein 1 (Homo sapiens); experiment: DKK1 binders on small-molecule microarrays, primary screen, biochemical, small-molecule microarray, 635 nm fluorescence scan (AID 1106); conditions: DKK1 binding, higher = more signal;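 further: score merges emission near 667 nm with signal to noise over three replicate slides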
Can you tell me composite z-score for the items I'm about to list?
Could you respond with only the numeric value?

query: Report composite z-score under test system Dickkopf-related protein 1 (Homo sapiens) for `C=CCNC(=O)[C@@H]1[C@H]2C(=O)O[C@H](c3ccccc3)[C@H](c3ccccc3)N2[C@H](c2ccc(O)cc2)[C@@]12C(=O)N(C(=O)OCCOC)c1ccc(C#CCNC(N)=O)cc12` .
result: 0.417

query: Report composite z-score under test system Dickkopf-related protein 1 (Homo sapiens) for `C=C[C@H](OC)[C@@H](OC(=O)Nc1ccc(OC)cc1)c1ccc(O)c(F)c1` .
result: -1.16

query: Report composite z-score under test system Dickkopf-related protein 1 (Homo sapiens) for CCC(CC)C(O)C1C=CC2C(=O)NC(=O)C2N1Nc1ccccn1 (centres undefined) .
result: 0.816

query: Report composite z-score under test system Dickkopf-related protein 1 (Homo sapiens) for CC(C)c1ccc(NN2C(C(O)c3ccc(B(O)O)cc3)C=CC3C(=O)N(c4ccccc4)C(=O)C32)cc1 (centres undefined) .
result: -0.381

----------
experiment: S. cerevisiae RM11-1a growth modifiers, primary screen, strain RM11-1a, OD600, basal, 24 h (AID 1177); settings: OD600, 24 h, higher = more signal, called active from +8 up or from −8 down;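 further: cultures grown under basal conditions with no added stressor; test concentration not given here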
value kind: z-score
Could you respond with only the numeric value?

query: Identify z-score associated with the compound `CC(C)N1C(=O)C[C@@](C(=O)NCC(F)(F)F)(c2ccc([N+](=O)[O-])cc2)[C@H]1c1ccc(CO)cc1`
result: -1.09

query: Identify z-score associated with the compound `C=CC[C@]1(C(=O)NCCCOC)N=C(c2ccc(OCCCO)cc2)O[C@H]1c1ccccc1CN=[N+]=[N-]`
result: -0.755

query: Identify z-score associated with the compound O=C(OCc1ccccc1)C1=CCC2c3[nH]c4ccccc4c3C(=O)C1N2S(=O)(=O)c1ccccc1[N+](=O)[O-] (stereo not given)
result: 0.714

query: Identify z-score associated with the compound `CCc1cccc(NC(=O)O[C@H]2[C@H](OC(=O)Nc3ccccc3-c3ccccc3)[C@@H](OC(=O)Nc3ccccc3-c3ccccc3)[C@@H](OC)O[C@@H]2CO)c1`
result: 0.924

query: Identify z-score associated with the compound `CO[C@H]1O[C@H](CO)[C@@H](OC(=O)Nc2ccc(C(F)(F)F)cc2)[C@H](OC(=O)Nc2ccc3c(c2)OCO3)[C@@H]1OC(=O)Nc1ccc2c(c1)OCO2`
result: 3.25

query: Identify z-score associated with the compound CC(C)C(CO)N1C(=O)[C@@H]2C3C(=O)OCCC/C=C\[C@H]3OC23C=CCN(CCN2CCOCC2)C(=O)[C@@H]13 (stereo not given in full)
result: -0.0505

query: Identify z-score associated with the compound `CCOC(=O)C1=CC[C@@H](c2ccccc2)N(S(=O)(=O)c2ccc(C)cc2)[C@H]1c1ccccc1C`
result: -0.59

query: Identify z-score associated with the compound O=C1NC(=O)C2C1C=CC(C(O)c1cc(C(F)(F)F)cc(C(F)(F)F)c1)N2Nc1ccccn1 (stereo not given)
result: 0.0176

query: Identify z-score associated with the compound `COc1cc(COC(C)=O)ccc1OC(C)=O`
result: -1.35

query: Identify z-score associated with the compound `C=CCN1C(=O)[C@]2(O[C@H](CCn3cc([C@H](O)c4ccccc4)nn3)[C@@H]([Si](C)(C)c3ccc(OC)cc3)[C@@H]2C)c2ccccc21`
result: 0.507

query: Identify z-score associated with the compound `CCCC=C(CCC)[C@@H](NC(=O)c1cccs1)c1ccc(C(F)(F)F)cc1`
result: 0.196

query: Identify z-score associated with the compound CCC(CC)C(O)C1C=CC2C(=O)NC(=O)C2N1Nc1ccc(Cl)cc1Cl (stereo not given)
result: 1.27

query: Identify z-score associated with the compound `[N-]=[N+]=NCc1ccccc1C[C@]1(C(N)=O)COC(c2ccc(OCCCO)cc2)=N1`
result: -1.37

query: Identify z-score associated with the compound `NC(=O)NCC#Cc1ccc2c(c1)[C@]1(C(=O)N2)[C@H](c2ccc(O)cc2)N2[C@H](c3ccccc3)[C@H](c3ccccc3)OC(=O)[C@H]2[C@@H]1C(=O)O`
result: 0.726

query: Identify z-score associated with the compound `CO[C@H]1O[C@H](CO)[C@@H](OC(=O)Nc2ccccc2)[C@H](OC(=O)Nc2ccccc2)[C@@H]1OC(=O)Nc1ccccc1`
result: 1.22

----------
system: Sonic hedgehog protein (Shh); assay: small-molecule binders of Shh protein, primary screen, biochemical, small-molecule microarray, 635/667 nm fluorescence (AID 1151); conditions: small-molecule microarray binding, 635 nm fluorescence; higher = more signal;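 further: Shh protein binding to compounds spotted on small-molecule microarray slides; score combines spot fluorescence intensity with signal-to-noise across triplicate slides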
Please use Condition met whenever composite z-score is not below 1, and Condition not met whenever it is.

query: Check this compound for composite z-score at or above 1: `Cc1ccc([C@@H]2C[C@@H](Sc3ccccc3)[C@H](C(=O)O)CN2S(=O)(=O)c2ccc(C)cc2)cc1`
result: Condition not met

query: Check this compound for composite z-score at or above 1: `C=CCNC(=O)[C@@H]1[C@H]2C(=O)O[C@H](c3ccccc3)[C@H](c3ccccc3)N2[C@H](c2ccc(OCCO)cc2)[C@@]12C(=O)Nc1ccc(C#CCC(C(=O)OC)C(=O)OC)cc12`
result: Condition met

query: Check this compound for composite z-score at or above 1: COc1cc2c(cc1O)C(c1cccs1)N(C)CC2 (stereo not drawn)
result: Condition not met

query: Check this compound for composite z-score at or above 1: C=CCC(OC(C)=O)[C@@H]1[C@@H](N(Cc2cc3ccccc3o2)C(=O)c2cccc3ccccc23)c2cc(OCCCO)ccc2N1C(=O)c1ccc(-c2ccccc2)cc1 (stereo partly drawn)
result: Condition not met

query: Check this compound for composite z-score at or above 1: O=C1NC(=O)C2C1C=CC(C(O)c1cc(C(F)(F)F)cc(C(F)(F)F)c1)N2Nc1ccccn1 (stereo not drawn)
result: Condition not met

query: Check this compound for composite z-score at or above 1: `C=C(C(=O)CC[C@@H](OC(=O)c1cccnc1)c1ccccc1OCCO)C(C)C`
result: Condition met

query: Check this compound for composite z-score at or above 1: `Oc1ccc2cc[n+](Cc3sc4ccccc4c3Cl)cc2c1`
result: Condition met

query: Check this compound for composite z-score at or above 1: `CCCCCCc1nc(-c2ccc(OC)nc2)cc2c1[Si](C(C)C)(C(C)C)O[C@H]2c1ccccc1`
result: Condition met

----------
Can you tell me composite z-score for the items I'm about to list?
system: Sam68 (KHDRBS1); experiment: Sam68 small-molecule binders, primary screen, biochemical, small-molecule microarray, 635 nm fluorescence (AID 1125); settings: small-molecule microarray binding, higher = more signal;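 further: score merges 667 nm channel intensity with signal to noise over triplicate slides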

query: Identify composite z-score associated with the molecule `C=CC[C@]1(C(=O)NCc2ccccc2)N=C(c2ccc(OCCCO)cc2)O[C@H]1c1ccccc1N=[N+]=[N-]`
result: 1.34

query: Identify composite z-score associated with the molecule `CC(C)N1C(=O)[C@@]2(Cc3ccccc31)c1ccccc1C(=O)N(Cc1ccccc1Cl)[C@H]2c1ccc(CO)cc1`
result: -0.162

query: Identify composite z-score associated with the molecule `CN(C)C(=O)[C@]1(Cc2ccccc2N=[N+]=[N-])N=C(c2ccc(OCCCO)cc2)O[C@@H]1c1ccccc1N=[N+]=[N-]`
result: 1.29

query: Identify composite z-score associated with the molecule COc1cc2c(cc1O)C(C1CC1)N(Cc1sc3ccccc3c1Cl)CC2 (configuration not stated)
result: 0.888

query: Identify composite z-score associated with the molecule `C=CC[C@@]1(C(=O)NCCN2CCOCC2)N=C(c2ccc(OCCCO)cc2)O[C@@H]1c1ccccc1N=[N+]=[N-]`
result: 0.176

query: Identify composite z-score associated with the molecule `CCCC[C@@H]1C[C@H]1[C@@H](NC(=O)C(C)(C)C)c1ccc(C(F)(F)F)cc1`
result: -0.305

query: Identify composite z-score associated with the molecule `COc1ccc(C#Cc2ccc3c(c2)[C@]2(C(=O)N3)[C@H](c3ccccc3OCCO)N3[C@H](c4ccccc4)[C@H](c4ccccc4)OC(=O)[C@H]3[C@@H]2C(=O)Nc2nc3ccccc3s2)cc1`
result: 1.31
